Specific activity, esterase E014 for assorted compounds
Test system: esterase E014
Assay: Initial screening of ThermoGen esterases toward esters 1-31 (pH indicator), specific activity
Type: biochemical
Conditions: 1 mM substrate, pH 7.2, 7 vol % acetonitrile, 25° C.
Recorded endpoint: Specific activity, esterase E014

CC(C(=O)Oc1ccc([N+](=O)[O-])cc1)c1ccccc1 (racemic) [Substrate 1, (±)-4-nitrophenyl-2-phenylpropanoate, reference compound] ... 1.2 mmol ester hydrolyzed/min/mg protein
CCCCCCCC(=O)OCC [Substrate 15] ... 5.1 mmol ester hydrolyzed/min/mg protein
CC(C)Cc1ccc(C(C)C(=O)Oc2ccc([N+](=O)[O-])cc2)cc1 (racemic) [Substrate 2, reference compound] ... 170 mmol ester hydrolyzed/min/mg protein

----------
Specific activity, esterase E020 for assorted molecules
System: esterase E020
Experiment: Initial screening of ThermoGen esterases toward esters 1-31 (pH indicator), specific activity
Type: biochemical
Details: 1 mM substrate, pH 7.2, 7 vol % acetonitrile, 25° C.
Recorded endpoint: Specific activity, esterase E020

CC(C)Cc1ccc(C(C)C(=O)Oc2ccc([N+](=O)[O-])cc2)cc1 (racemic) [Substrate 2, reference compound] ... 370 mmol ester hydrolyzed/min/mg protein
CC(C(=O)Oc1ccc([N+](=O)[O-])cc1)c1ccccc1 (racemic) [Substrate 1, (±)-4-nitrophenyl-2-phenylpropanoate, reference compound] ... 110 mmol ester hydrolyzed/min/mg protein
C=COC(=O)CCCCCCCCCCCCC [Substrate 7] ... 1.0 mmol ester hydrolyzed/min/mg protein
CC(=O)Oc1ccccc1 [Substrate 26] ... 390 mmol ester hydrolyzed/min/mg protein
C=COC(=O)C(C)(C)C [Substrate 11] ... 1.2 mmol ester hydrolyzed/min/mg protein
CCOC(=O)CBr [Substrate 18] ... 3.1 mmol ester hydrolyzed/min/mg protein
NC(Cc1ccccc1)C(=O)Oc1ccc([N+](=O)[O-])cc1.O=C(O)C(F)(F)F (racemic) [Substrate 3, reference compound] ... 550 mmol ester hydrolyzed/min/mg protein
CCCC(=O)OCC(COC(=O)CCC)OC(=O)CCC [Substrate 29] ... 560 mmol ester hydrolyzed/min/mg protein
CCCC(=O)OCC1CO1 (centres unmarked) [Substrate 30] ... 2.0 mmol ester hydrolyzed/min/mg protein
CCCC(=O)OCC [Substrate 13] ... 3.0 mmol ester hydrolyzed/min/mg protein
CCOC(=O)CN.Cl [Substrate 31] ... 1.4 mmol ester hydrolyzed/min/mg protein
CCCCCCCC(=O)OCC [Substrate 15] ... 2.6 mmol ester hydrolyzed/min/mg protein

----------
Tested on: esterase E020
Assay: Initial screening of ThermoGen esterases toward esters 1-31 (pH indicator), specific activity
Assay type: biochemical
Conditions: 1 mM substrate, pH 7.2, 7 vol % acetonitrile, 25° C.
Recorded endpoint: Specific activity, esterase E020

C=C(C)OC(C)=O [Substrate 27] ... 3.3 mmol ester hydrolyzed/min/mg protein
CC(C)(C)CC(=O)Oc1ccc2nc3ccc(=O)cc-3oc2c1 [Substrate 10, reference compound] ... 14 mmol ester hydrolyzed/min/mg protein
CCC(C)OC(C)=O (centres unmarked) [Substrate 28] ... 2.1 mmol ester hydrolyzed/min/mg protein

----------
System: esterase E012
Assay: Initial screening of ThermoGen esterases toward esters 1-31 (pH indicator), specific activity
Assay type: biochemical
Conditions: 1 mM substrate, pH 7.2, 7 vol % acetonitrile, 25° C.
Recorded endpoint: Specific activity, esterase E012

C=C(C)OC(C)=O [Substrate 27] ... 2.4 mmol ester hydrolyzed/min/mg protein
CC(C(=O)Oc1ccc([N+](=O)[O-])cc1)c1ccccc1 (racemic) [Substrate 1, (±)-4-nitrophenyl-2-phenylpropanoate, reference compound] ... 3.1 mmol ester hydrolyzed/min/mg protein
CC(C)(C)CC(=O)Oc1ccc2nc3ccc(=O)cc-3oc2c1 [Substrate 10, reference compound] ... 22 mmol ester hydrolyzed/min/mg protein
CCCC(=O)OCC1COC(C)(C)O1 (racemic) [Substrate 8, (±)-Solketal Butyrate, reference compound] ... <2 mmol ester hydrolyzed/min/mg protein
